- test system: free FIXa (activated Factor IX) (UniProt P00740 47-191; P00740 227-461)
- method notes: BLI
Binning of Kd into classes: Low: < 0.006 µM; Mid: ≥ 0.006 µM and < 0.02 µM; High: ≥ 0.02 µM

BIIB-9-579 (antibody, V domains shown) VH: QVQLVQSGAEVKKPGASVKVSCKASGYTFTSYYMVWVRQAPGQGLEWMGIINPSGGSTSYAQKFQGRVTMTRDTSTSTVYMELSSLRSEDTAVYYCARGPWYSYYYMDVWGKGTTVTVSS VL: DIQMTQSPSSLSASVGDRVTITCRASQSISSYLNWYQQKPGKAPKLLIYGASSLQSGVPSRFSGSGSGTDFTLTISSLQPEDFATYYCQQAFSFPFTFGGGTKVEIK : Mid
BIIB-9-1269 (antibody, V domains shown) VH: QVQLVQSGAEVKKPGASVKVSCKASGYTFTSYYMHWVRQAPGQGLEWMGIINPSGGSTSYAQKFQGRVTMTRDTSTSTVYMELSSLRSEDTAVYYCARDRGQYYHFDLWGRGTLVTVSS VL: DIQMTQSPSSVSASVGDRVAITCRASQGISSWLAWYQQKPGKAPKLLIYAASSLQSGVPSRFSGSGSGTDFTLTISSLQPEDFATYYCQQASSFPFTFGGGTKVEIK : High
BIIB-9-883 (antibody, V domains shown) VH: QVQLVQSGAEVKKPGASVKVSCKASGYTFTSYYMHWVRQAPGQGLEWMGIINPSGGSTSYAQKFQGRVTMTRDTSTSTVYMELSSLRSEDTAVYYCARDGRLSYTWDRWGQGTLVTVSS VL: DIQMTQSPSSLSASVGDRVTITCQASQDITNYLNWYQQKPGKAPKLLIYDASNLETGVPSRFSGSGSGTDFTFTISSLQPEDIATYYCQQADHFPFTFGGGTKVEIK : Mid
BIIB-9-885 (antibody, V domains shown) VH: QVQLVQSGAEVKKPGASVKVSCKASGYTFTSYYMHWVRQAPGQGLEWMGIINPSGGSTSYAQKFQGRVTMTRDTSTSTVYMELSSLRSEDTAVYYCAREGPMLDYPTYSNWFDPWGQGTLVTVSS VL: EIVLTQSPATLSLSPGERATLSCRASQSVSSYLAWYQQKPGQAPRLLIYDASKRATGIPARFSGSGSGTDFTLTISSLEPEDFAVYYCQQRVIWPPTFGGGTKVEIK : Low
BIIB-9-588 (antibody, V domains shown) VH: QVQLVQSGAEVKKPGASVKVSCKASGYTFTSYYMHWVRQAPGQGLEWMGIINPSGGSTTYAQKFQGRVTMTRDTSTSTVYMELSSLRSEDTAVYYCARDGGGSYDYWSGYWYDVWGQGTTVTVSS VL: EIVMTQSPATLSVSPGERATLSCRASQSVSSNLAWYQQKPGQAPRLLIYGASTRATGIPARFSGSGSGTEFTLTISSLQSEDFAVYYCQQAYNWPFTFGGGTKVEIK : Mid

Textbook exercise: identify the category of the binder given here, BIIB-9-416 (antibody, V domains shown) VH: QVQLVQSGAEVKKPGASVKVSCKASGYTFTSYYMHWVRQAPGQGLEWMGIINPSGGSTSYAQKFQGRVTMTRDTSTSTVYMELSSLRSEDTAVYYCAREGPMLDYPTYSNWFDPWGQGTLVTVS VL: EIVMTQSPATLSLSPGERATLSCRASQSVSSYLAWYQQKPGQAPRLLIYDSSNRATGIPARFSGSGSGTDFTLTISSLEPEDFAVYYCQQRVVWPPTFGGGTKVEIK , according to its measured value.
Low

Band for BIIB-9-1265 (antibody, V domains shown) VH: QLQLQESGPGLVKPSETLSLTCTVSGGSISSSSYYWGWIRQPPGKGLEWIGSIYYSGSTYYNPSLKSRVTISVDTSKNQFSLKLSSVTAADTAVYYCARDGRHYYELFDYWGQGTLVTVSS VL: DIQMTQSPSSVSASVGDRVTITCRASQGISSWLAWYQQKPGKAPKLLIYAASSLQSGVPSRFSGSGSGTDFTLTISSLQPEDFATYYCQQGNSFPITFGGGTKVEIK ?
High

Lab note: sort BIIB-9-566 (antibody, V domains shown) VH: QVQLVQSGAEVKKPGASVKVSCKASGYTFTSYYMVWVRQAPGQGLEWMGIINPSGGSTSYAQKFQGRVTMTRDTSTSTVYMELSSLRSEDTAVYYCARVPTYRYSYLAFDIWGQGTMVTVSS VL: EIVMTQSPATLSVSPGERATLSCRASQSVSSSLAWYQQKPGQAPRLLIYGASTRATGIPARFSGSGSGTEFTLTISSLQSEDFAVYYCQQHDNWPPTFGGGTKVEIK into the matching Kd band.
High

# bin label for BIIB-9-1287 (antibody, V domains shown) VH: QLQLQESGPGLVKPSETLSLTCTVSGGSISSSDYYWGWIRQPPGKGLEWIGSIYYSGSTYYNPSLKSRVTISVDTSKNQFSLKLSSVTAADTAVYYCARSPRHKVRGPNWFDPWGQGTLVTVSS VL: EIVLTQSPGTLSLSPGERATLSCRASQSVSSSYLAWYQQKPGQAPRLLIYGASSRATGIPDRFSGSGSGTDFTLTISRLEPEDFAVYYCQQYHLHPTFGGGTKVEIK
Low
